Biological target: human PD-1 (human) (UniProt Q15116)
Sequence (Q15116 25-288): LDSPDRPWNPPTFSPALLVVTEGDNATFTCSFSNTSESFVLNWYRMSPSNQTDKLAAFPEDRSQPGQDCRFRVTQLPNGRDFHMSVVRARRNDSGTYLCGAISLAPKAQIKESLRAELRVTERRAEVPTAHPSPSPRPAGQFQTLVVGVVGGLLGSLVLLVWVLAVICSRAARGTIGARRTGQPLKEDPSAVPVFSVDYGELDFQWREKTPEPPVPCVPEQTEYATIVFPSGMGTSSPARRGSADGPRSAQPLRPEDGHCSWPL
Would you mind telling me the reported IFN gamma levels pg/mL (MLR) of each entry?
Quick note: give the figure in pg/mL, leave out the unit.

IFN gamma levels pg/mL (MLR) for variant PD-L2 IgV G28V/Q72H/R76G/I86T Fc fusion (Fc fusion) LFTVTVPKELYIIEHGSNVTLECNFDTVSHVNLGAITASLQKVENDTSPHRERATLLEEQLPLGKASFHIPHVQVGDEGQYQCIITYGVAWDYKYLTLKVKA is 1780

IFN gamma levels pg/mL (MLR) for variant PD-L2 IgV I13V/S67L/V89D Fc fusion (Fc fusion) LFTVTVPKELYIVEHGSNVTLECNFDTGSHVNLGAITASLQKVENDTSPHRERATLLEEQLPLGKALFHIPQVQVRDEGQYQCIIIYGDAWDYKYLTLKVKA is 868

IFN gamma levels pg/mL (MLR) for variant PD-L2 IgV I13V/H15Q/Q82R/V89D Fc fusion (Fc fusion) LFTVTVPKELYIVEQGSNVTLECNFDTGSHVNLGAITASLQKVENDTSPHRERATLLEEQLPLGKASFHIPQVQVRDEGQYRCIIIYGDAWDYKYLTLKVKA is 1600

IFN gamma levels pg/mL (MLR) for variant PD-L2 IgV E44D/V89D/W91R Fc fusion (Fc fusion) LFTVTVPKELYIIEHGSNVTLECNFDTGSHVNLGAITASLQKVDNDTSPHRERATLLEEQLPLGKASFHIPQVQVRDEGQYQCIIIYGDARDYKYLTLKVKA is 1560

IFN gamma levels pg/mL (MLR) for variant PD-L2 IgV I13V/H15Q/T47A/H69L/R76G/V89D Fc fusion (Fc fusion) LFTVTVPKELYIVEQGSNVTLECNFDTGSHVNLGAITASLQKVENDASPHRERATLLEEQLPLGKASFLIPQVQVGDEGQYQCIIIYGDAWDYKYLTLKVKA is 1080

IFN gamma levels pg/mL (MLR) for variant PD-L2 IgV I13V/H15Q/T37A/E44D/S48C/S67L/Q82R/V89D Fc fusion (Fc fusion) LFTVTVPKELYIVEQGSNVTLECNFDTGSHVNLGAIAASLQKVDNDTCPHRERATLLEEQLPLGKALFHIPQVQVRDEGQYRCIIIYGDAWDYKYLTLKVKA is 1750

IFN gamma levels pg/mL (MLR) for variant PD-L2 IgV I13V/H15Q/R76G/D77N/Q82R/V89D Fc fusion (Fc fusion) LFTVTVPKELYIVEQGSNVTLECNFDTGSHVNLGAITASLQKVENDTSPHRERATLLEEQLPLGKASFHIPQVQVGNEGQYRCIIIYGDAWDYKYLTLKVKA is 1190

IFN gamma levels pg/mL (MLR) for variant PD-L2 IgV I13V/H15Q/V31A/N45S/Q82R/V89D Fc fusion (Fc fusion) LFTVTVPKELYIVEQGSNVTLECNFDTGSHANLGAITASLQKVESDTSPHRERATLLEEQLPLGKASFHIPQVQVRDEGQYRCIIIYGDAWDYKYLTLKVKA is 1720

IFN gamma levels pg/mL (MLR) for variant PD-L2 IgV H15Q/V31M/S67L/Q82R/V89D Fc fusion (Fc fusion) LFTVTVPKELYIIEQGSNVTLECNFDTGSHMNLGAITASLQKVENDTSPHRERATLLEEQLPLGKALFHIPQVQVRDEGQYRCIIIYGDAWDYKYLTLKVKA is 1210
